Tested on: 3D7-MR4 trophozoite parasite-infected RBCs
test.name: Metabolomic profiling (hydrophilic metabolite changes, UHPLC-MS)
Assay type: cell-based, Plasmodium falciparum
assay.conditions: metabolite Isopentyl-PP

compound	Log2(fold change) Isopentyl-PP
FC(F)(F)c1ccc(Nc2cc3[nH]c(-c4cccc(C(F)(F)F)c4)nc3cn2)nc1 [MMV675939]	-0.3198
CCCOCc1cc(CN2CCN(c3cccc(Cl)c3)CC2)c(O)c2ncccc12 [MMV000787]	-1.2940
Cc1ccc(Oc2ncccc2C(=O)Nc2cccc3cccnc23)c(C)c1 [MMV020746]	-0.6932
C[C@H]1Cc2c([nH]c3cc(Cl)c(F)cc23)[C@@]2(N1)C(=O)Nc1ccc(Cl)cc12 [KAE609, reference compound]	0.0000
O=C(Nc1ccc(N2CCNCC2)cc1)c1ccn2ncc(-c3cccc(Cl)c3)c2n1.O=C(O)C(F)(F)F [MMV022478]	0.0000
O=C1C(O)=C([C@H]2CC[C@H](c3ccc(Cl)cc3)CC2)C(=O)c2ccccc21 [Atovaquone, reference compound]	-0.0191

----------
System: 3D7-MR4 trophozoite parasite-infected RBCs
test.name: Metabolomic profiling (hydrophilic metabolite changes, UHPLC-MS)
Assay type: cell-based, Plasmodium falciparum
assay.conditions: metabolite S-adenosyl-L-methionine
Listing: Log2(fold change) S-adenosyl-L-methionine of selected molecules
assay.readout: Log2(fold change) S-adenosyl-L-methionine

molecule	observed.value
FC(F)(F)c1ccc(Nc2cc3[nH]c(-c4cccc(C(F)(F)F)c4)nc3cn2)nc1 [MMV675939]	0.0000
CN(C)Cc1ccc(-c2cc3c(-c4ccc(CN(C)C)cc4)ccnc3[nH]2)cc1.O=C(O)C(F)(F)F [MMV022224]	0.0000
C[C@H]1Cc2c([nH]c3cc(Cl)c(F)cc23)[C@@]2(N1)C(=O)Nc1ccc(Cl)cc12 [KAE609, reference compound]	0.0000
CN(C)c1ccc2nc3ccc(=[N+](C)C)cc-3sc2c1 [Methylene blue, reference compound]	0.0000
O=C(Nc1ccc(N2CCNCC2)cc1)c1ccn2ncc(-c3cccc(Cl)c3)c2n1.O=C(O)C(F)(F)F [MMV022478]	0.0000
CCCOCc1cc(CN2CCN(c3cccc(Cl)c3)CC2)c(O)c2ncccc12 [MMV000787]	0.0000
Clc1ccc2c(N3CCN(CCCN4CCN(c5ccnc6cc(Cl)ccc56)CC4)CC3)ccnc2c1 [Piperaquine, reference compound]	0.0000

----------
Catalogue of molecules with associated Log2(fold change) indole
Test system: 3D7-MR4 trophozoite parasite-infected RBCs
test.name: Metabolomic profiling (hydrophilic metabolite changes, UHPLC-MS)
Assay type: cell-based, Plasmodium falciparum
assay.conditions: metabolite indole

molecule	target.desc	Log2(fold change) indole
Cc1cc(Nc2ccc(S(F)(F)(F)(F)F)cc2)n2nc(C(C)(F)F)nc2n1 [DSM265, reference compound]	3D7-MR4 trophozoite parasite-infected RBCs	0.1900
Cl.c1ccc2c(NCCCCCCNc3c4c(nc5ccccc35)CCCC4)c3c(nc2c1)CCCC3	3D7-MR4 trophozoite parasite-infected RBCs	0.0000
CCCOCc1cc(CN2CCN(c3cccc(Cl)c3)CC2)c(O)c2ncccc12	3D7-MR4 trophozoite parasite-infected RBCs	0.0000
CCCN(CCC)CC(O)COc1ccccc1C(=O)Nc1ccccc1 (centres unmarked)	3D7-MR4 trophozoite parasite-infected RBCs	-0.2645
COc1cc(-c2nc(-c3ccccc3)c(-c3ccccc3)[nH]2)ccc1OCCN(C)C	3D7-MR4 trophozoite parasite-infected RBCs	0.0089
O=C1C(O)=C([C@H]2CC[C@H](c3ccc(Cl)cc3)CC2)C(=O)c2ccccc21 [Atovaquone, reference compound]	3D7-MR4 trophozoite parasite-infected RBCs	-0.1736
O=C(Nc1ccc(N2CCNCC2)cc1)c1ccn2ncc(-c3cccc(Cl)c3)c2n1.O=C(O)C(F)(F)F	3D7-MR4 trophozoite parasite-infected RBCs	0.0000
CN(C)Cc1ccc(-c2cc3c(-c4ccc(CN(C)C)cc4)ccnc3[nH]2)cc1.O=C(O)C(F)(F)F	3D7-MR4 trophozoite parasite-infected RBCs	0.8345
CC(C)(C)c1ccc2c(c1)CN(Cc1ccc(Cl)cc1)CO2	3D7-MR4 trophozoite parasite-infected RBCs	0.0000
Clc1ccc2c(N3CCN(CCCN4CCN(c5ccnc6cc(Cl)ccc56)CC4)CC3)ccnc2c1 [Piperaquine, reference compound]	3D7-MR4 trophozoite parasite-infected RBCs	0.0000
CCOC(=O)C1=C(C)NC2=C(C(=O)CC(c3ccc(OC)c(OC)c3)C2)C1c1ccccc1Cl (centres unmarked) [GNF-Pf-5660, reference compound]	3D7-MR4 trophozoite parasite-infected RBCs	-0.1422
CN(C)c1ccc2nc3ccc(=[N+](C)C)cc-3sc2c1 [Methylene blue, reference compound]	3D7-MR4 trophozoite parasite-infected RBCs	0.0000
COCCNCC(O)Cn1c2ccc(Cl)cc2c2cc(Cl)ccc21 (centres unmarked)	3D7-MR4 trophozoite parasite-infected RBCs	0.2468
CC(C)(C)NCc1cc(Nc2ccnc3cc(Cl)ccc23)c2c(c1O)CCCC2 [Naphtoquine, Naphthoquine, reference compound]	3D7-MR4 trophozoite parasite-infected RBCs	0.0000
CC(C)(C)OC(=O)N1CCN(c2ccccc2NC(=O)c2cccc(C(F)(F)F)c2Oc2ccc(F)cc2)CC1	3D7-MR4 trophozoite parasite-infected RBCs	0.3440
FC(F)(F)c1cccc(Nc2nc3ccccc3nc2Nc2cccc(C(F)(F)F)c2)c1	3D7-MR4 trophozoite parasite-infected RBCs	0.0000
COc1cncc(-c2cncc(N3CCN(c4ccncc4)CC3)n2)c1	3D7-MR4 trophozoite parasite-infected RBCs	0.0000
